Cited source for all entries: PubChem BioAssay AID583

- Target: Heat shock 70 kDa protein 1A (Homo sapiens) (UniProt P0DMV8)
- Sequence (P0DMV8 whole entry, looked up): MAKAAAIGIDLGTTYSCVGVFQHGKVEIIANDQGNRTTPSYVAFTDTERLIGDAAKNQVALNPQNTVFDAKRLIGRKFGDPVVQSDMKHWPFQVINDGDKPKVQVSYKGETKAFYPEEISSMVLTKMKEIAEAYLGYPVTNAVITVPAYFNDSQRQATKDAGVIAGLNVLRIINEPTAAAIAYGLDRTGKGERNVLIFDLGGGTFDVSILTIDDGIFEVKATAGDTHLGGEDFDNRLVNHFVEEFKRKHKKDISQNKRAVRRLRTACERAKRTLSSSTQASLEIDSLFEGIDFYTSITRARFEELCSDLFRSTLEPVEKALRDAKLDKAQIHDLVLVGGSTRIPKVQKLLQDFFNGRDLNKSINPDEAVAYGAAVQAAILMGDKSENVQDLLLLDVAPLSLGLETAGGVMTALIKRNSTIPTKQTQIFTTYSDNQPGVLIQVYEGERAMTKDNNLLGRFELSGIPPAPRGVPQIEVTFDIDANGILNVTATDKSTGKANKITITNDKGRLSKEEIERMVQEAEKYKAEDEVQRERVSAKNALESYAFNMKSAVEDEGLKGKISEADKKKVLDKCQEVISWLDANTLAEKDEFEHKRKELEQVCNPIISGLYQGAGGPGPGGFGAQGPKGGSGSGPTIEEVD
- Protocol Description: Hsp70 inhibitors, probe displacement, primary screen, biochemical, fluorescence polarization (AID 583);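 note: plate controls were vehicle for no effect and reference ligand for full effect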
- Experimental Parameters: mP, at 20 µM, hits give high values
Among all 140,000 compounds or so, about 80 (0.06%) were called active. For the sample, actives were picked, then their nearest neighbours and some compounds at random.
Quantity Kind: displacement (%)

INSERT INTO assay_data (molecule, quantity_kind, assay_result) VALUES
  ('COC(=O)c1cc(C#N)c(SCc2ccccc2)nc1C', 'displacement', -5),
  ('CC(Oc1ccc2c3c(c(=O)oc2c1)CCCC3)C(=O)c1ccccc1 (stereo unspecified)', 'displacement', 2.3),
  ('CC(=NCCCn1ccnc1)c1c(-c2ccccc2)[nH]n(-c2nc3ccccc3s2)c1=O', 'displacement', 0.5),
  ('COc1cc(C(=O)O)c(-n2c(C)ccc2C)cc1OC', 'displacement', 6.6),
  ('O=C(Nc1ccc2nc(-c3cccs3)c(-c3cccs3)nc2c1)NC1CC1', 'displacement', 2.3),
  ('O=C(O)C1Nc2c(C(=O)N3CCOCC3)cccc2C2C=CCC12 (stereo unspecified)', 'displacement', 17.9),
  ('Cc1c(NS(=O)(=O)c2cc(Cl)ccc2Cl)cccc1[N+](=O)[O-]', 'displacement', -2.4),
  ('O=C(NC1CC1)C1CCCN(C(=O)Nc2ccc(F)cc2)C1 (stereo unspecified)', 'displacement', -7.5),
  ('COc1ccc(Cn2c3nc4ccccc4nc3c3c(=O)n(Cc4ccco4)c(C)nc32)cc1', 'displacement', 2.5),
  ('Cc1ccc(C)n1-c1ccc(OCC(=O)O)cc1', 'displacement', 62.2),
  ('COc1cccc(CN(CC2CCCO2)S(=O)(=O)c2ccc(S(=O)(=O)NCC3CCCO3)cc2)c1OC (stereo unspecified)', 'displacement', -2.5),
  ('Cc1ccc(C)n1-c1ccc(Br)cc1C(=O)O', 'displacement', 7.4),
  ('Cc1cc(I)c2c(c1)C1C=CCC1C(C(=O)O)N2 (stereo unspecified)', 'displacement', 23.8),
  ('O=C(CCCC(=O)N1CCCCC1)NCc1ccco1', 'displacement', -1.6),
  ('Cc1cc(Br)cc2c(N=Nc3cccc4cccnc34)c(O)n(C)c12', 'displacement', 3.2),
  ('CC(C)(C)c1ccc(OCC(=O)O)cc1', 'displacement', 4.2),
  ('Cc1cccc(C(NC(N)=O)c2ccccc2)c1 (stereo unspecified)', 'displacement', 0.4),
  ('COc1ccc(NC(=O)Cn2nc(C)c3ccccc3c2=O)cc1', 'displacement', -1),
  ('Cc1c(Cl)ccc2c1NC(C(=O)O)C1CC=CC21 (stereo unspecified)', 'displacement', 95.7),
  ('O=C1NC(=S)N/C1=C\c1ccc(-c2cc([N+](=O)[O-])ccc2Br)o1', 'displacement', 51.2),
  ('N#Cc1cc2c(nc1SCc1ccc(Br)cc1)CCCC2', 'displacement', -3.8),
  ('O=C(COc1ccc(Cl)cc1Cl)NNC(=O)CN1C(=O)/C(=C/c2ccc(Cl)cc2Cl)SC1=S', 'displacement', 0.4),
  ('Cc1c(C(=O)O)cccc1-n1c(=O)c2cc3c(=O)n(-c4cccc(C(=O)O)c4C)c(=O)c3cc2c1=O', 'displacement', -1.1),
  ('Nc1nnn(Cc2ccccc2)n1', 'displacement', -0.8),
  ('Cc1cc(C)n(Cc2ccc(C(=O)O)cc2)n1', 'displacement', -8.4),
  ('Cc1ccc(NC(=O)c2ccccc2NC(=O)Cc2cccs2)cc1C', 'displacement', 3.6),
  ('O=C(O)COc1ccc(N2C(=O)C=CC2=O)cc1', 'displacement', 0.9),
  ('O=C1NC(=S)N/C1=C/c1ccc(-c2cc([N+](=O)[O-])ccc2Cl)o1', 'displacement', 17.3),
  ('Cc1nc(=O)c(-c2ccccc2)c(C)n1-c1ccccc1C(=O)O', 'displacement', 6.5),
  ('O=C(Nc1ccc(N2CCOCC2)cc1)Nc1ccc2nc(-c3ccco3)c(-c3ccco3)nc2c1', 'displacement', 1.1),
  ('COCC(=O)Nc1nc(-c2ccccc2)c(C)s1', 'displacement', -1.9),
  ('Cc1cc(NC(=O)CN2CCN(c3ccccc3F)CC2)nc2c1c(=O)oc1ccccc12', 'displacement', 1.7),
  ('CC(=O)c1ccc(-n2c(C)ccc2C)cc1', 'displacement', 6.4),
  ('Cc1ccc(C)n1-c1ccc(CC(=O)O)cc1', 'displacement', 23.3),
  ('Cc1ccc(C)n1-c1sccc1C(=O)O', 'displacement', 24.9),
  ('COc1ccccc1/C=N/NC(=O)C(=O)NCc1ccccn1', 'displacement', -2.8),
  ('CC1CCCCN1c1nnc(N)s1 (stereo unspecified)', 'displacement', 0.6),
  ('O=C1NN(c2ccc(Cl)cc2)C(=O)/C1=C\c1ccc(-c2cccc(C(=O)O)c2)o1', 'displacement', 16.5),
  ('COc1ccc(N2C(=O)C3C(C2=O)N2CCCN2C3c2ccc(Cl)cc2)cc1 (stereo unspecified)', 'displacement', 2.3),
  ('O=C(O)CCCCCCCCCCN1C(=O)/C(=C/c2cccc(Br)c2)SC1=S', 'displacement', 56.6),
  ('O=C1NN(c2ccc(F)c(Cl)c2)C(=O)/C1=C\c1ccc(-c2cccc(C(=O)O)c2)o1', 'displacement', 5.7),
  ('CC(=O)OC(/C(O)=C(\C#N)c1nc2ccccc2[nH]1)c1ccccc1 (stereo unspecified)', 'displacement', -1.2),
  ('O=c1nc(/C=C/c2cc([N+](=O)[O-])ccc2Cl)cc(C(F)(F)F)[nH]1', 'displacement', 3.5),
  ('CCOC(=O)c1c(C)[nH]c(C(=O)COC(=O)C(C)N2C(=O)C3CCCCC3C2=O)c1C (stereo unspecified)', 'displacement', -1.9),
  ('Cc1c(C(=O)O)cccc1-n1c(C)ccc1C', 'displacement', 51.1),
  ('Cc1ccc(/C(N)=N/OC(=O)c2ccc(Br)cc2)cc1', 'displacement', 1.1);
